# Study system: T1, Sortilin SORTECDBAP_hB12390 (human/tetraodon chimera)
# T1 construct: Shuffle construct: chimeric human/tetraodon Sortilin ECD with BAP tag
# T1 chain: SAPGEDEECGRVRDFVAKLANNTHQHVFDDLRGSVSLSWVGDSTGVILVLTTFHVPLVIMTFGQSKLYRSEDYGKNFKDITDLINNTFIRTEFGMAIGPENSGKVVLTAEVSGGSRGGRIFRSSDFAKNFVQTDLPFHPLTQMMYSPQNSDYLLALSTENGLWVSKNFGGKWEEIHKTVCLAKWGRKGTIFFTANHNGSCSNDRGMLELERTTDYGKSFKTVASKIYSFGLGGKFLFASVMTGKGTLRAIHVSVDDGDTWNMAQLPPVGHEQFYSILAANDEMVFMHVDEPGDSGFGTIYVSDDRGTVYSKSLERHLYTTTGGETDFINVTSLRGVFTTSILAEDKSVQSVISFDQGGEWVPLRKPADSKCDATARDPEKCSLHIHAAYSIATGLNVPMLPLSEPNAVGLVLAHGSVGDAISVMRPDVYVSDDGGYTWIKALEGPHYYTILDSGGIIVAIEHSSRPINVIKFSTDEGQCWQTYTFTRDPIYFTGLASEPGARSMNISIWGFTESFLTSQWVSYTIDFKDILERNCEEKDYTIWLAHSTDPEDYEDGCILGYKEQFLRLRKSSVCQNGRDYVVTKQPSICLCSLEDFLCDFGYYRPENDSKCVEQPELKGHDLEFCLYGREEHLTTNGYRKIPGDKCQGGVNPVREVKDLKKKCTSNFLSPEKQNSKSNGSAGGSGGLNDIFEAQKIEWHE
# Assay comment: BLI (Octet384RED)
Experimental readout: EC50 (ng/mL)
Give the quantity in ng/mL, number only.

Exercise: Please report the recorded EC50 for Antibody 6003-083 (antibody, human IgG1, V domains shown) VH: EVQLLESGGGLVQPGGSLRLSCAASGFTFSSYAMSWVRQAPGKGLEWVSTISGRGGSTYYADSVKGRFTISRDNSKNTLYLQMNSLRAEDTAVYYCAIVATMYWYFDLWGRGTLVTVSS VL: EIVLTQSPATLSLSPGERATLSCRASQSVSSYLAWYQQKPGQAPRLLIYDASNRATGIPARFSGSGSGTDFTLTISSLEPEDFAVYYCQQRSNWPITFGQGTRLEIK .
Key: 0.86
